# Tested on: hIL17
# test_name: IL-17 release from differentiated primary human T-cells (IL-17A HTRF assay)
# Type: cell-based
# condition_label: inhibition of IL-17A levels; primary human CD4+ T cells differentiated into Th17 cells, 46-hour incubation
measurement_name: IC50 (nM)
Output spec: scalar in nM, unitless text.

The value of IC50 recorded for CN(C)C(=O)[C@]12CCC(C)(C)C[C@H]1[C@H]1C(=O)C=C3[C@@]4(C)C=C(C#N)C(=O)[C@@](C)(O)[C@@H]4CC[C@@]3(C)[C@]1(C)CC2 when tested on hIL17 reads 59

Let me check: Cc1nnc([C@]23CCC(C)(C)C[C@H]2[C@H]2C(=O)C=C4[C@@]5(C)C=C(C#N)C(=O)[C@@](C)(CO)[C@@H]5CC[C@@]4(C)[C@]2(C)CC3)o1 , system hIL17, measured IC50 is 101

IC50 value, target or system hIL17, for COC(=O)N[C@]12CCC(C)(C)C[C@H]1[C@H]1C(=O)C=C3[C@@]4(C)C=C(C#N)C(=O)[C@@](C)(COC(C)=O)[C@@H]4CC[C@@]3(C)[C@]1(C)CC2 : 35

---

# System: IFNγ-induced Nitric Oxide production
# test_name: Nitric oxide production assay in RAW 264.7 mouse macrophages
# Format: cell-based
# condition_label: RAW264.7, suppression of IFNγ-induced NO production normalized to cell viability (WST-1), RAW 264.7, 24 hours IFNγ
IC50 strictly less than 80 nM = True. Otherwise False.

Cc1nnc([C@]23CCC(C)(C)C[C@H]2[C@H]2C(=O)C=C4[C@@]5(C)C=C(C#N)C(=O)[C@@](C)(CO)[C@@H]5CC[C@@]4(C)[C@]2(C)CC3)o1 = True
COC(=O)[C@]12CCC(C)(C)C[C@H]1[C@H]1C(=O)C=C3[C@@]4(C)C=C(C#N)C(=O)[C@@](C)(C(N)=O)[C@@H]4CC[C@@]3(C)[C@]1(C)CC2 = False
CC1(C)CC[C@@]23CC[C@@]4(C)[C@]5(C)CC[C@@H]6[C@@](C)(C5=CC(=O)[C@]4(OC2=O)[C@@H]3C1)[C@H]1O[C@@]1(C#N)C(=O)[C@@]6(C)O = True

Field: below-cutoff. Rule: recorded IC50 strictly less than 80 nM. Subject: Cc1nnc([C@]23CCC(C)(C)C[C@H]2[C@H]2C(=O)C=C4[C@@]5(C)C=C(C#N)C(=O)C(C)(C)[C@@H]5CC[C@@]4(C)[C@]2(C)CC3)o1 [Comparison Compound #8, reference compound]
True

Please indicate whether the reported IC50 of CNC(=O)[C@]1(C)C(=O)C(C#N)=C[C@]2(C)C3=CC(=O)[C@]45OC(=O)[C@@]6(CCC(C)(C)C[C@H]64)CC[C@@]5(C)[C@]3(C)CC[C@@H]12 is strictly below 80 nM.
False

Is IC50 of COC(=O)[C@]12CCC(C)(C)C[C@H]1[C@H]1C(=O)C=C3[C@@]4(C)C=C(C#N)C(=O)[C@@](C)(C(=O)OC)[C@@H]4CC[C@@]3(C)[C@]1(C)CC2 strictly below 80 nM?
False

Determine whether this compound shows IC50 lower than 80 nM (ties excluded): COC(=O)[C@]12CCC(C)(C)C[C@H]1[C@H]1C(=O)C=C3[C@@]4(C)C=C(C#N)C(=O)[C@@](C)(O)[C@@H]4CC[C@@]3(C)[C@]1(C)CC2
True

is_below(IC50, 80 nM) for COC[C@]1(C)C(=O)C(C#N)=C[C@]2(C)C3=CC(=O)[C@@H]4[C@@H]5CC(C)(C)CC[C@]5(C(=O)OC)CC[C@@]4(C)[C@]3(C)CC[C@H]21 ?
True
